Where do these numbers come from? They come from PubChem BioAssay AID651812.

- experiment: qHTS for inhibitors of Vif-A3G interactions: Cherry picks; also: nearly all actives have a fitted effect of over 80% in size
- cond: HeLa A3G-eYFP + Vif, 24 h; eYFP fluorescence increase; series mostly up to 36.9 µM
The whole screen tested about 2,100 compounds, of which about 650 (31%) were called active. Another 16% or so got no clear call; they are omitted. Calls follow the shape of the dose curve; as a rule, active = well fitted inhibition curve with a large enough effect; inconclusive = small, poorly fitted or top-dose-only effect; inactive = flat fitted curve, though single readings scatter. This is one part of the list.
Outcome codes: TRUE (active), FALSE (inactive)

1. O=C(NC(=S)Nc1ccc(N2CCCCC2)c(Cl)c1)c1ccc2c(c1)OCCO2 | FALSE
2. O=C(COC(=O)c1ccc(NS(=O)(=O)c2cccs2)cc1O)NCc1ccccc1 | FALSE
3. CCCCN(C(=O)c1ccc([N+](=O)[O-])s1)c1c(N)n(CCCC)c(=O)[nH]c1=O | FALSE
4. Cc1sc2nc(CSCC(=O)Nc3ccccc3C#N)[nH]c(=O)c2c1C | FALSE
5. O=C(NCc1cccs1)C1CCN(c2ccc(S(=O)(=O)N3CCOCC3)cc2Cl)CC1 | FALSE
6. CCOc1cc(/C=C(\C#N)c2nc(-c3cccs3)c(NC(C)=O)s2)ccc1O | TRUE
7. COc1cccc(-c2ccc3c(N)c(C(=O)c4ccc(Br)cc4)sc3n2)c1 | TRUE
8. CN(C)c1ccc(/C=C/c2nc3ccccc3c(=O)n2CCO)cc1 | TRUE
9. Cc1ccc(NC(=O)c2ccc([N+](=O)[O-])s2)cc1S(=O)(=O)N1CCOCC1 | FALSE
10. Cc1cc(N2CCCC2)ccc1/C=C1/C(=O)N(C)C(=S)N1C | TRUE
11. O=C(Nc1cc(F)cc(F)c1)c1ccc(NCCc2ccccc2)c([N+](=O)[O-])c1 | TRUE
12. CC(=O)Nc1sc(/C(C#N)=C\c2cccc(Cl)c2)nc1-c1ccc(C)cc1 | TRUE
13. CCOC(=O)c1c(CN(CC)CC)n(-c2ccccc2)c2ccc(O)cc12 | FALSE
14. CCN1CCc2c(sc(-n3cccc3)c2C(C)NC(=O)Nc2ccc(C(=O)OC)cc2)C1 (stereo not given) | FALSE
15. CC(C)CN(CC(C)C)S(=O)(=O)c1ccc(C(=O)Nc2sc3c(c2C(N)=O)CCN(C(C)C)C3)cc1 | TRUE
16. CC(C)N1CCc2c(sc(NC(=O)c3ccc(S(=O)(=O)N4CCOCC4)cc3)c2C#N)C1 | TRUE
17. Cc1cc(/C=C2\NC(=S)N(C)C2=O)ccc1N1CCCC1 | TRUE
18. Cc1noc(C)c1CSc1nc2ccccc2c(=O)n1-c1ccccc1 | FALSE
19. O=C1/C(=C/c2ccc(N3CCCC3)cc2)NC(=S)N1C1CC1 | TRUE
20. CC(C)N1CCc2c(sc(NC(=O)c3cc4cc([N+](=O)[O-])ccc4s3)c2C(N)=O)C1 | FALSE
21. COc1ccc2c(C)cc(SCC#N)nc2c1 | TRUE
22. Cc1ccc(NC(=O)c2ccc(NCC3CCCO3)c([N+](=O)[O-])c2)cc1Cl (stereo not given) | TRUE
23. Cc1ccc(NC(=O)CSc2ccccc2NC(=O)c2cccc(Cl)c2)cc1Cl | FALSE
24. Nc1c(N(CCC2=CCCCC2)C(=O)c2ccc([N+](=O)[O-])o2)c(=O)[nH]c(=O)n1Cc1ccccc1 | TRUE
25. COc1ccc(C(=O)c2ccc(OC)c(OC)c2OC)cc1 | FALSE
26. COc1ccc(NC(=O)c2sc3nc(C(F)(F)F)cc(C)c3c2N)cc1OC | TRUE
27. CNC(=S)N/N=C/c1ccc(N2CCOCC2)s1 | FALSE
28. CC1(C(=O)NCc2ccccc2)Cc2c(-c3ccc(C(N)=O)cc3)ccnc2O1 (stereo not given) | FALSE
29. O=c1c2cc3ccccc3n2cnn1Cc1ccccc1F | FALSE
30. CCOC(=O)c1c(-c2ccc(C)cc2)csc1NC(=O)/C(C#N)=C/c1ccc(O)c(OC)c1 | FALSE
31. COc1ccc(C(=O)c2sc3nc(C)cc(-c4cccs4)c3c2N)cc1 | TRUE
32. Cc1cc(SCC(=O)c2cccs2)nc2ccccc12 | FALSE
33. CCCCN(CCCC)S(=O)(=O)c1ccc(C(=O)Nc2sc3c(c2C(N)=O)CCN(CC)C3)cc1 | TRUE
34. COc1ccc(N(C(=O)C(C)C)S(=O)(=O)c2cccs2)cc1 | FALSE
35. CCN1C(=O)/C(=C/c2ccc(N3CCCC3)cc2)NC1=S | TRUE

----------
- experiment: qHTS for inhibitors of Vif-A3G interactions: Cherry picks; also: nearly all actives have a fitted effect of over 80% in size
- cond: HeLa A3G-eYFP + Vif, 24 h; eYFP fluorescence increase; series mostly up to 36.9 µM
Screen size: about 2,100 compounds; about 650 (31%) were called active. Not shown: some 16% with an inconclusive outcome. The call rests on the fitted dose curve; in most records, active means well fitted inhibition curve with a large enough effect; inconclusive means small, poorly fitted or top-dose-only effect; inactive means flat fitted curve, though single readings scatter. This is one part of the list.
Outcome codes: TRUE for active, FALSE for inactive

1) C#CCSc1nc(-c2cccs2)ccc1C#N | TRUE
2) CCOC(=O)C1CCCN(C(=O)c2ccc3nc(-c4cccc(OC)c4)oc3c2)C1 (stereo unspecified) | FALSE
3) Cc1cc(C)cc(Oc2nc(C(F)(F)F)nc3ccccc23)c1 | FALSE
4) Cc1cccc(CSc2nc(-c3cccs3)ccc2C#N)c1 | FALSE
5) NN=C1c2ccccc2C(=O)C1C(=O)C(c1ccccc1)c1ccccc1 (stereo unspecified) | TRUE
6) N#Cc1ccc(-c2cccs2)nc1SCc1c(F)cccc1Cl | FALSE
7) COc1cc(/C=C(\C#N)c2nc3ccccc3[nH]2)ccc1OCc1ccccc1F | TRUE
8) CCOC(=O)Nc1ccc2nc(-c3cscn3)[nH]c2c1 | FALSE
9) CCOC(=O)C1=C(Cc2ccc(F)cc2)C(=O)c2ccccc2C1=O | TRUE
10) O=C(c1ccccc1)c1c2c(cc3sc4ccccc4[n+]13)-c1cccc3cccc-2c13 | FALSE
11) COc1cc(/C=C(\C#N)c2nc3ccc(C)cc3[nH]2)ccc1OC(C)C | TRUE

----------
- experiment: qHTS for inhibitors of Vif-A3G interactions: Cherry picks; also: nearly all actives have a fitted effect of over 80% in size
- cond: HeLa A3G-eYFP + Vif, 24 h; eYFP fluorescence increase; series mostly up to 36.9 µM
About 650 (31%) of roughly 2,100 compounds were called active. About 16% were inconclusive and are not listed. Calls come from the whole dose curve; as a rule, active = well fitted inhibition curve with a large enough effect; inconclusive = small, poorly fitted or top-dose-only effect; inactive = flat fitted curve, though single readings scatter. The list shows a part of the results.
Outcome codes: 1 for active, 0 for inactive

1) CCCOC(=O)/C(=C\c1ccc([N+](=O)[O-])o1)NC(=O)c1ccccc1 | 0
2) O=[N+]([O-])c1ccc(N2CCN(Cc3ccccc3)CC2)c2c1no[n+]2[O-] | 1
3) COc1ccccc1N1CCN(C(=O)c2ccc3ncsc3c2)CC1 | 0
4) O=C1CSC(=S)N1Cc1cccnc1 | 1
5) CCOc1ccc(S(=O)(=O)Nc2cc3c(C(=O)OC)c(COC)oc3c3ccccc23)cc1 | 0
6) COc1ccccc1N1CCN(C(=O)c2cc(=O)c3cc(C)ccc3o2)CC1 | 0

----------
- experiment: qHTS for inhibitors of Vif-A3G interactions: Cherry picks; also: nearly all actives have a fitted effect of over 80% in size
- cond: HeLa A3G-eYFP + Vif, 24 h; eYFP fluorescence increase; series mostly up to 36.9 µM
Screen size: about 2,100 compounds; about 650 (31%) were called active. About 16% were inconclusive and are not listed. Calls come from the whole dose curve; as a rule, active = well fitted inhibition curve with a large enough effect; inconclusive = small, poorly fitted or top-dose-only effect; inactive = flat fitted curve, though single readings scatter. The list shows a part of the results.
Outcome codes: yes (1) = active, no (0) = inactive

1. CCN(CCCN(C)C)c1ccc(/C=C/c2ccnc3ccccc23)cc1 | yes (1)
2. COc1ccc(C2C(C#N)=C(N)Oc3cc(N)ccc32)cc1OC (configuration not stated) | no (0)
3. COc1ccc(C(=O)NC(=S)NCc2cccnc2)cc1Cl | no (0)
4. Cc1ccc(N2C(=O)CS/C2=C(\C(Cl)=C(Cl)Cl)[N+](=O)[O-])cc1 | no (0)
5. OCCCn1c(C2CCCN2c2nc(-c3ccc(Cl)cc3)cs2)nc2cc(Cl)c(Cl)cc21 (configuration not stated) | no (0)
6. O=C(NC1CCCC(C(F)(F)F)C1)c1ccc([N+](=O)[O-])o1 (configuration not stated) | no (0)
7. COc1cc(N(C)C)c(OC)cc1/C=C/c1ccnc2ccccc12 | yes (1)
8. CCn1c(=O)c2cc(C(=O)NCCCOC)sc2c2ccccc21 | no (0)
9. O=C(N/N=C/c1cccc2ccccc12)c1n[nH]c2c1CCCC2 | no (0)
10. c1ccc2[nH]c(NN=C3CCCCCC3)nc2c1 | no (0)
11. CN(C)c1ccc(/C=C/c2ccnc3c(Cl)cccc23)cc1 | yes (1)
12. CCC1CC=CC2C1C(=O)N(Cc1ccccc1)C2c1ccoc1 (configuration not stated) | no (0)

----------
- experiment: qHTS for inhibitors of Vif-A3G interactions: Cherry picks; also: nearly all actives have a fitted effect of over 80% in size
- cond: HeLa A3G-eYFP + Vif (tagged APOBEC3G with the HIV-1 protein that degrades it), 24 h; eYFP fluorescence increase; series mostly up to 36.9 µM
In all, about 2,100 compounds went through this assay and about 650 (31%) were called active. Another 16% or so got no clear call; they are omitted. Calls come from the whole dose curve; as a rule, active = well fitted inhibition curve with a large enough effect; inconclusive = small, poorly fitted or top-dose-only effect; inactive = flat fitted curve, though single readings scatter. This is one part of the list.
Outcome codes: 1 (yes) = active, 0 (no) = inactive

1. COc1ccc2[nH]cc(/C=C/c3cc[n+](C)cc3)c2c1 | 1 (yes)
2. O=C1S/C(=C\c2ccc(N3CCOCC3)o2)C(=O)N1c1ccccc1 | 1 (yes)
3. COc1cccc(/C=N/n2c(C3CCCCC3)n[nH]c2=S)c1O | 0 (no)
4. COc1cc(C(=O)NCC(=O)N2CCN(S(=O)(=O)c3cc(C)ccc3C)CC2)cc(OC)c1OC | 0 (no)
5. CCCCN1C(=O)/C(=C2/Sc3ccccc3N2C)S/C1=N\c1ncn[nH]1 | 1 (yes)
6. COc1ccc(OC)c(S(=O)(=O)N/N=C\c2cn(CC(N)=O)c3ccccc23)c1 | 0 (no)
7. O=C(N/N=C/c1ccc2c(c1)OCO2)c1cc(-c2ccncc2)nc2ccccc12 | 0 (no)
8. COc1cc2c(cc1OC)C(C)N(C(=O)c1cc(C)on1)CC2 (stereo not given) | 0 (no)
9. COc1ccc2c(c1)c(/C=C/c1cc[n+](C)cc1)cn2C | 1 (yes)
10. CCCc1nc2c(C)cc(Br)cn2c1Cc1ccccc1 | 0 (no)
11. COc1cc2c3nnc(-c4ccc(F)cc4)c-3cn(Cc3ccc(C)cc3)c2cc1OC | 1 (yes)
12. Cc1c(C(=O)N/N=C/C(C)C)[nH]c2c([N+](=O)[O-])cccc12 | 0 (no)
13. Cc1ccc(F)c(S(=O)(=O)NC(=O)C2(C)CCN2C(=O)Cc2ccc(Cl)cc2Cl)c1 (stereo not given) | 0 (no)
14. COc1ccc2nc3ccccc3nc2c1NC(=O)c1ccc(Br)cc1 | 1 (yes)
15. O=C1NC(c2ccc(Br)cc2)Nc2ccccc21 (stereo not given) | 0 (no)
